# measurement.description: Clinical trial and pharmacokinetic study of oral HPR (corn oil soft gel capsules) in adult solid tumor patients
# Format: in vivo, human
# particulars: human, plasma; oral HPR, patients; read-out: terminal phase half-life
property.measured: half-life

[[record]]
molecule = "CC1=C(/C=C/C(C)=C/C=C/C(C)=C/C(=O)Nc2ccc(O)cc2)C(C)(C)CCC1 [HPR, N-4-hydroxyphenylretinamide]"
observed_value = "8 to 14 h"


###

# measurement.description: Maximum (saturation) solubility of HPR in physiological aqueous systems with ethanol or human plasma proteins
# Type: physicochemical
# particulars: human, PBS with retinol binding protein 0.05 g/L, 23 °C, pH 7.4, plasma or biological fluid, kinetic from dmso stock, PBS pH 7.4; retinol binding protein 0.05 g/L
property.measured: solubility

[[record]]
compound = "CC1=C(/C=C/C(C)=C/C=C/C(C)=C/C(=O)Nc2ccc(O)cc2)C(C)(C)CCC1 [HPR, N-4-hydroxyphenylretinamide]"
observed_value = "< 1 µg/mL"


###

# measurement.description: Bioavailability of oral HPR in corn oil versus IV F23 in Sprague-Dawley rats
# Assay type: in vivo
# particulars: plasma, rat, 1200 mg/m^2 in corn oil by gavage vs 444 mg/m^2 IV F23, AUC0-30, read-out: bioavailability of orally dosed HPR
property.measured: bioavailability (%)

[[record]]
molecule = "CC1=C(/C=C/C(C)=C/C=C/C(C)=C/C(=O)Nc2ccc(O)cc2)C(C)(C)CCC1 [HPR, N-4-hydroxyphenylretinamide]"
unit_of_measure = "%"
observed_value = 8


###

# measurement.description: Maximum (saturation) solubility of HPR in physiological aqueous systems with ethanol or human plasma proteins
# Assay type: physicochemical
# particulars: phosphate buffered saline, 23 °C, pH 7.4, aqueous buffer, kinetic from dmso stock, PBS pH 7.4; additive none
property.measured: solubility

[[record]]
compound = "CC1=C(/C=C/C(C)=C/C=C/C(C)=C/C(=O)Nc2ccc(O)cc2)C(C)(C)CCC1 [HPR, N-4-hydroxyphenylretinamide]"
property_measured = "solubility"
observed_value = "< 1 µg/mL"


###

# measurement.description: Maximum (saturation) solubility of HPR in physiological aqueous systems with ethanol or human plasma proteins
# Format: physicochemical
# particulars: human, PBS with α1-acid-glycoprotein 1 g/L, 23 °C, pH 7.4, plasma or biological fluid, kinetic from dmso stock, PBS pH 7.4; α1-acid-glycoprotein 1 g/L
property.measured: solubility

[[record]]
compound = "CC1=C(/C=C/C(C)=C/C=C/C(C)=C/C(=O)Nc2ccc(O)cc2)C(C)(C)CCC1 [HPR, N-4-hydroxyphenylretinamide]"
observed_value = "1 to 2 µg/mL"


###

# measurement.description: Maximum (saturation) solubility of HPR in physiological aqueous systems with ethanol or human plasma proteins
# Assay type: physicochemical
# particulars: human, PBS with albumin 50 g/L, 23 °C, pH 7.4, plasma or biological fluid, kinetic from dmso stock, PBS pH 7.4; albumin 50 g/L
property.measured: solubility

[[record]]
molecule = "CC1=C(/C=C/C(C)=C/C=C/C(C)=C/C(=O)Nc2ccc(O)cc2)C(C)(C)CCC1 [HPR, N-4-hydroxyphenylretinamide]"
observed_value = "7 to 8 µg/mL"


###

# measurement.description: Delivered dose and retinoid flux, EpiDerm-FT in Franz cells
# particulars: human, 1.7 mg Retin-A cream
property.measured: half-life at 0.1 %

[[record]]
compound = "CC1=C(/C=C/C(C)=C/C=C/C(C)=C/C(=O)O)C(C)(C)CCC1 [ATRA, all-trans-retinoic acid]"
property_measured = "half-life at 0.1 %"
observed_value = "> 2 h"


###

# measurement.description: Maximum (saturation) solubility of HPR in physiological aqueous systems with ethanol or human plasma proteins
# Type: physicochemical
# particulars: phosphate-buffered saline with 20 vol % ethanol, pH 7.4, aqueous with cosolvent or surfactant or cyclodextrin, kinetic from dmso stock, phosphate-buffered saline with ethanol to 20 vol %; read-out: HPR solubility
property.measured: solubility

[[record]]
compound = "CC1=C(/C=C/C(C)=C/C=C/C(C)=C/C(=O)Nc2ccc(O)cc2)C(C)(C)CCC1 [HPR, N-4-hydroxyphenylretinamide]"
observed_value = "~1.3 µg/mL"

